- SYSTEM_TESTED: Muscarinic acetylcholine receptor M1 (Rattus norvegicus) (UniProt P08482)
- Sequence (P08482 whole entry, looked up): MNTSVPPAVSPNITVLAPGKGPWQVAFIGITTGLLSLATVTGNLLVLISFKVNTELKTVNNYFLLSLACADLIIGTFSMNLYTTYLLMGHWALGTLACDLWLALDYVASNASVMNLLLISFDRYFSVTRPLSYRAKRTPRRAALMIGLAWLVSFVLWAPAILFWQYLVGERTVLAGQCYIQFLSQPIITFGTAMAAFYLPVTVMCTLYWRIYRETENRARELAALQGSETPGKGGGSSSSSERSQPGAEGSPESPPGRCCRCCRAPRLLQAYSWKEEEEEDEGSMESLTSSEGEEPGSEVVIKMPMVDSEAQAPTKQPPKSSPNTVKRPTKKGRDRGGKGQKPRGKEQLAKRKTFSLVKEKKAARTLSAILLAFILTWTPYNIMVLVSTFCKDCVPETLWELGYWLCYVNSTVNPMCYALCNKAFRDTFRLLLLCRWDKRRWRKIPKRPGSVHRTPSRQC
- ASSAY_DETAILS: qHTS Assay for Antagonists of Acetylcholine Muscarinic M1 Receptor: Measurement of IP-One Response (AID 944); also: nearly all actives have a fitted effect of over 75% in size
- RUN_CONDITIONS: CHO-M1 cells, IP-One HTRF, antagonist mode; series mostly up to 46.1 µM
Inconclusive results are not listed. Activity calls are given as the source filed them. Calls follow the shape of the dose curve; as a rule, active = well fitted inhibition curve with a large enough effect; inconclusive = small, poorly fitted or top-dose-only effect; inactive = no such curve, though single readings can be large or run the other way.
Assign a class; possible classes are active, inactive

Solved entries:
- RECORD_SMILES: "NC(=O)c1cc(N2CC2)c([N+](=O)[O-])cc1[N+](=O)[O-]"
  CAT: "inactive"
- RECORD_SMILES: "CCCN(CCC)C1Cc2cc(OC)c(OC)cc2C1"
  CAT: "active"
- RECORD_SMILES: "O=[N+]([O-])c1cc(O)c(O)c([N+](=O)[O-])c1"
  CAT: "inactive"

// outcome(item) with item = `CCCn1c(C)c(C(=O)c2ccc3ccccc3c2)c2ccccc21`
inactive

// outcome(item) with item = `O=S1(=O)N(CCN2CC=C(c3c[nH]c4cc(F)ccc34)CC2)c2cccc3c2N1CCC3`
active

// outcome(item) with item = `Cc1sc2ccccc2c1CC1=NCCN1`
inactive

----------
- ASSAY_DETAILS: S16 Schwann cell PMP22 intronic element beta-lactamase assay (AID 624044); also: nearly all actives have a fitted effect of over 15% in size
- RUN_CONDITIONS: S16 rat Schwann cells, PMP22 element beta-lactamase FRET, 24 h; series mostly up to 38.3 µM
Inconclusive results are not listed. Activity calls are given as the source filed them. Calls follow the shape of the full dose curve.
Assign a class; possible classes are active, inactive

- COMPOUND: "O=[N+]([O-])c1ccccc1"
  CAT: "inactive"
- COMPOUND: "COC1=CC=C2[C@H]3Cc4ccc(OC)c5c4[C@@]2(CCN3C)[C@H]1O5"
  CAT: "inactive"
- COMPOUND: "O[C@H]1[C@H]2[C@H](O)CCCN2C[C@H]1O"
  CAT: "inactive"

// outcome(item) with item = `O=CC=O`
inactive

// outcome(item) with item = C[N+]1(C)CCCCC1COC(=O)C(O)(c1ccccc1)c1ccccc1 (stereo not given)
inactive

// outcome(item) with item = `CCON=O`
inactive

// outcome(item) with item = CC1CCC(C(C)C)C(OC(=O)c2ccccc2N)C1 (stereo not given)
inactive

// outcome(item) with item = `Clc1ccccc1Cl`
inactive

// outcome(item) with item = `O=C1CCO1`
inactive

// outcome(item) with item = `[Cl-].[Cl-].[Hg+2]`
active

----------
- ASSAY_DETAILS: Validation qHTS assay for inhibitors of Activation Induced Cytidine Deaminase (AID): UDG Counterscreen signal (AID 1347427); also: potency is read from the fitted curve at half-maximal effect
- RUN_CONDITIONS: biochemical UDG counterscreen, fluorescence signal; series mostly up to 115 µM
Activity calls are given as the source filed them. Calls come from the whole dose curve; as a rule, active = well fitted curve in the direction sought with a large enough effect; inconclusive = small, poorly fitted or top-dose-only effect, or another doubt; inactive = no such curve, though single readings can be large or run the other way.
MEASUREMENT_KIND: Potency

Answered cases to consult:
- COMPOUND: "C=CCN1CC[C@]23c4c5ccc(O)c4O[C@@H]2/C(=N/N=C2\\CC[C@@]4(O)C6Cc7ccc(O)c8c7[C@@]4(CCN6CC=C)[C@@H]2O8)CC[C@@]3(O)C1C5"
  OBSERVED_RESULT: "inactive"
- COMPOUND: "CN(C(=O)Cc1ccc(Cl)c(Cl)c1)C(CN1CCCC1)c1cccc(OCC(=O)O)c1 (centres undefined)"
  OBSERVED_RESULT: "inactive"
- COMPOUND: "O=[N+]([O-])/C=C/c1ccc2c(c1)OCO2"
  OBSERVED_RESULT: "inactive"
- COMPOUND: "CC(C)(C)c1cc(C=C(C#N)C#N)cc(C(C)(C)C)c1O"
  OBSERVED_RESULT: "70.8 µM (active)"
- COMPOUND: "N#CCCN"
  OBSERVED_RESULT: "inactive"
- COMPOUND: "c1ccc2c(N3CCNCC3)cccc2c1"
  OBSERVED_RESULT: "inactive"
- COMPOUND: "NC(=O)COc1c(F)cc(SCCNS(=O)(=O)c2ccccc2)cc1F"
  OBSERVED_RESULT: "inactive"
- COMPOUND: "C[N+]1(C)CCc2cc3c(cc2[C@H]1[C@@H]1OC(=O)c2c1ccc1c2OCO1)OCO3"
  OBSERVED_RESULT: "inactive"
- COMPOUND: "CN1CCC(c2c[nH]c3ccc(O)cc23)CC1"
  OBSERVED_RESULT: "inactive"
- COMPOUND: "C#CCN[C@H](C)Cc1ccccc1"
  OBSERVED_RESULT: "inactive"

Looking for the measured Potency of `Cc1[nH]c2ccc(O)cc2c1CCN` , can you help?
inactive

Looking for the measured Potency of `C[N+](C)(C)CC#CCN1CCCC1=O` , can you help?
inactive

Looking for the measured Potency of `CCCCCCC(C)(C)c1ccc([C@@H]2C[C@H](O)CC[C@H]2CCCO)c(O)c1` , can you help?
inactive

Looking for the measured Potency of `NC(N)=Nc1ccc2[nH]c3c(c2c1)C[C@@]1(O)[C@H]2Cc4ccc(O)c5c4[C@@]1(CCN2CC1CC1)[C@H]3O5` , can you help?
inactive
